- assay protocol: in vitro
- experimental conditions: human
measurement name: IC50 at 24 h

>  <smiles data>
C[C@@]12C[C@@]3(O)O[C@@H](O1)[C@]1(COC(=O)c4ccccc4)[C@H]3C[C@@]12O[C@@H]1O[C@H](CO)[C@@H](O)[C@H](O)[C@H]1O

>  <measurement name>
IC50 at 24 h

>  <reading>
> 1 mM

$$$$
